# target system: Dual specificity protein kinase CLK4 (Homo sapiens)
# Sequence (Q9HAZ1 whole entry): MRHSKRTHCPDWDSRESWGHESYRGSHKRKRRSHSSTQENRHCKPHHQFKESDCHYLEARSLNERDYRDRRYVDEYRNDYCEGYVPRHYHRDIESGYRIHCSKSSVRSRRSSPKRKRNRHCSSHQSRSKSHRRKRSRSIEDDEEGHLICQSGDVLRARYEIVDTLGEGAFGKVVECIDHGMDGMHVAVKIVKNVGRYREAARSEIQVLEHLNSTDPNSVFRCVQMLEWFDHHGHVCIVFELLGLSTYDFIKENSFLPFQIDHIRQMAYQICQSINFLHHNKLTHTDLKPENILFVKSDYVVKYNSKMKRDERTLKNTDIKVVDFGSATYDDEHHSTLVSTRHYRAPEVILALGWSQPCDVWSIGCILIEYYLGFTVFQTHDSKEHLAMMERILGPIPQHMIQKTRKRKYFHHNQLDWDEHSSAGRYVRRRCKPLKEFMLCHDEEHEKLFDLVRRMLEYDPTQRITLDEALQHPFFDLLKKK
# Type: functional
Calls of active or inactive are those of the source.

>  <compound>
Fc1cccc(-c2c[nH]c3ncccc23)c1

>  <Ki>
0.0398 µM (active)

$$$$
>  <compound>
CCOC(=O)c1c[nH]n2c(=O)cc(-c3ccncc3)nc12

>  <Ki>
0.0251 µM (active)

$$$$
>  <compound>
O=C1Nc2ccccc2Nc2cc(-c3ccncc3Cl)ccc21

>  <Ki>
0.0631 µM (active)

$$$$
>  <compound>
CCCCOc1cc(-c2ccncc2)cc2[nH]nc(N)c12

>  <Ki>
0.01 µM (active)

$$$$
>  <compound>
O=C1Cc2cc(-c3ccccc3)cnc2N1

>  <Ki>
6.31 µM (active)

$$$$
>  <compound>
O=C1Nc2cc(-c3ccc(O)cc3)ccc2C1=Cc1ccc[nH]1

>  <Ki>
1.26 µM (active)

$$$$
>  <compound>
C=CCNc1cc(-c2c[nH]c3ncccc23)cc(Cl)n1

>  <Ki>
0.00398 µM (active)

$$$$
>  <compound>
NC(COc1cncc(-c2ccc3c(c2)C(=Cc2ccc[nH]2)C(=O)N3)c1)Cc1ccccc1 (centres undefined)

>  <Ki>
0.000316 µM (active)

$$$$
>  <compound>
O=C(Nc1ccccc1N1CCCC1)c1ccc2ccccc2n1

>  <Ki>
1.26 µM (active)

$$$$
